protocol.notes: Oral bioavailability in Sprague-Dawley rat at 20 mg/kg
Type: ADME, organism-based
experimental.setup: in vivo
property.measured: bioavailability (%)
The response must be a number in % with no trailing unit.

[Q] Which bioavailability reading was recorded for the compound Cc1sc(C)c(C(=O)NC2(c3ccc(C(=O)O)cc3)CC2)c1Cc1ccc(C(F)(F)F)cc1 ?
[A] 29

---

protocol.notes: Oral bioavailability in cynomolgus monkey at 5 mg/kg
Format: ADME, organism-based, Macaca fascicularis
experimental.setup: in vivo
property.measured: bioavailability (%)
The response must be a number in % with no trailing unit.

[Q] Which bioavailability reading was recorded for the molecule Cc1sc(C)c(C(=O)NC2(c3ccc(C(=O)O)cc3)CC2)c1Cc1ccc(C(F)(F)F)cc1 ?
[A] 18

---

Target sequence: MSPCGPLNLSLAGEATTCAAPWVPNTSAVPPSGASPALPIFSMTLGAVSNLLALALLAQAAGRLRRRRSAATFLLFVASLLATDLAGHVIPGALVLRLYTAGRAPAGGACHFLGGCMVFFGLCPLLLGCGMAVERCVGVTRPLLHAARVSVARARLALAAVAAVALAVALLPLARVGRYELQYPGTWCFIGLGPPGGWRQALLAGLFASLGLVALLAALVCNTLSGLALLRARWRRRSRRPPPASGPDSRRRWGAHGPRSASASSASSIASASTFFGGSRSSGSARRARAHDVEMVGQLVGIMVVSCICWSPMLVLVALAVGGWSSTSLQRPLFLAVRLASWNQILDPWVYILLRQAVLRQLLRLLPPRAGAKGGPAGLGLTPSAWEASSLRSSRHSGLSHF
Property: Ki; scope: individual molecules

C[C@H](NC(=O)c1c(Cl)sc(Cl)c1Cc1cccc(Cl)c1)c1ccc(C(=O)O)cc1
> 0.456 µM

[Q] Which Ki reading was recorded for the molecule Cc1sc(C)c(C(=O)N[C@@H](C)c2ccc(C(=O)O)cc2)c1Cc1ccc(C(F)(F)F)cc1 ?
[A] > 5.47 µM

[Q] Which Ki reading was recorded for the molecule Cc1sc(C)c(C(=O)NC2(c3ccc(C(=O)O)cc3)CC2)c1Cc1cccc(C(F)(F)F)c1 ?
[A] > 4.99 µM

[Q] Which Ki reading was recorded for the molecule Cc1sc(C)c(C(=O)N[C@@H](C)c2ccc(C(=O)O)cc2)c1Cc1ccc(Cl)cc1 ?
[A] > 2.12 µM

[Q] Which Ki reading was recorded for the molecule Cc1sc(C)c(C(=O)NC2(c3ccc(C(=O)O)cc3)CC2)c1Cc1ccc(C(F)(F)F)cc1 ?
[A] > 5.6 µM

---

protocol.notes: Half life in Sprague-Dawley rat at 5 mg/kg, iv
Type: ADME, organism-based
Design: dose 5 mg/kg, route intravenous
experimental.setup: in vivo
property.measured: half-life (h)
The response must be a number in h with no trailing unit.

[Q] Which half-life reading was recorded for the molecule Cc1sc(C)c(C(=O)NC2(c3ccc(C(=O)O)cc3)CC2)c1Cc1ccc(C(F)(F)F)cc1 ?
[A] 4.5

---

System: Rattus norvegicus
protocol.notes: Plasma concentration in complete Freund's adjuvant-induced Sprague-Dawley rat inflammatory pain model at 0.1 mg/kg/day, po
Type: ADME, organism-based
Set-up: route oral
experimental.setup: in vivo
property.measured: concentration (nM)
The response must be a number in nM with no trailing unit.

[Q] Which concentration reading was recorded for the compound Cc1sc(C)c(C(=O)NC2(c3ccc(C(=O)O)cc3)CC2)c1Cc1ccc(C(F)(F)F)cc1 ?
[A] 4
